biological target: human PD-1 (Jurkat-PD-1 cells) / PE-labeled human PD-L1-Ig (Homo sapiens, UniProt Q15116); construct: expressed in transfected cells; host or cells: Jurkat cell line over-expressing human PD-1; assay: Jurkat-PD-1 Cell Binding High-Content Screening Assay (CBA); Jurkat hPD1-PDL1 assay; details: Jurkat cell line over-expressing human PD-1; PE-labeled PD-L1-Ig 20 nM final; compound incubated 2 hours at 37° C.; read-out: Jurkat HPD1-PDL1 IC50
Sequence (Q15116 25-288): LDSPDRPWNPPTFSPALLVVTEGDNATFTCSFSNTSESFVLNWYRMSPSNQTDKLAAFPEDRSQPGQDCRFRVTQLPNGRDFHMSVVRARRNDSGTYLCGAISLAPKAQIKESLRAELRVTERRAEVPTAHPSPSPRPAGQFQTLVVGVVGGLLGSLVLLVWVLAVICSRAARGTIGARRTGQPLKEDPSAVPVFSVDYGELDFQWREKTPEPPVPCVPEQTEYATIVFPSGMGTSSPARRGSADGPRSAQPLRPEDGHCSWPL
Positions of bridges follow the written chain, without caps; N, C: chain ends. Non-standard residues stand in square brackets, D forms with d. Residues, ends and D or L forms follow the SMILES beside them. Phe(4-CH2NH2) = NCc1ccc(C[C@H](N)C(=O)O)cc1; Bip = N[C@@H](Cc1ccc(-c2ccccc2)cc1)C(=O)O; NMeF = CN[C@@H](Cc1ccccc1)C(=O)O; NMeA = CN[C@@H](C)C(=O)O; Dap = NC[C@H](N)C(=O)O; Sar = CNCC(=O)O
Catalogue of IC50 values
Provide a numeric answer, followed by its unit.

Check out these entries, answers already filled in.
Q: GET /values?readout=IC50&item= CC(C)C[C@@H]1NC(=O)[C@H](Cc2c[nH]c3ccccc23)NC(=O)[C@H](CC(=O)O)NC(=O)[C@H](Cc2ccc(O)cc2)NC(=O)[C@H](Cc2ccccc2)NC(=O)CSC[C@@H](C(=O)N[C@@H](C)C(N)=O)NC(=O)[C@H](CO)NC(=O)[C@H](C(C)C)NC(=O)[C@H](CC(C)C)NC(=O)[C@H](CCC(=O)O)NC(=O)[C@H]2CCCN2C(=O)[C@H](C)N(C)C(=O)[C@H](CCC(=O)O)NC(=O)[C@H](Cc2ccc(-c3ccccc3)cc2)NC1=O [Example 1177] ({CH2CO}-FYDWL[Bip]E[NMeA][dP]ELVSCA-NH2; thioether N-14)
Result: 240 nM

Q: GET /values?readout=IC50&item= CC(C)C[C@@H]1NC(=O)[C@H](Cc2c[nH]c3ccccc23)NC(=O)[C@H](CC(=O)O)NC(=O)[C@H](Cc2ccc(O)cc2)NC(=O)[C@H](Cc2ccc(CN)cc2)NC(=O)CSC[C@@H](C(=O)NCC(N)=O)NC(=O)[C@H](CO)NC(=O)[C@H](C(C)C)NC(=O)[C@H](CC(C)C)NC(=O)[C@H](CC(N)=O)NC(=O)CN(C)C(=O)[C@H](C)N(C)C(=O)[C@H](C(C)C)NC(=O)[C@H](Cc2ccc(-c3ccccc3)cc2)NC1=O [Example 1160] ({CH2CO}-[Phe(4-CH2NH2)]YDWL[Bip]V[NMeA][Sar]NLVSCG-NH2; thioether N-14)
Result: 870 nM

---
Q: GET /values?readout=IC50&item= CC(C)C[C@@H]1NC(=O)[C@H](Cc2c[nH]c3ccccc23)NC(=O)[C@H](CC(=O)O)NC(=O)[C@H](Cc2ccc(O)cc2)NC(=O)[C@H](Cc2ccccc2)NC(=O)CSC[C@@H](C(=O)N[C@@H](C)C(N)=O)NC(=O)[C@H]([C@@H](C)O)NC(=O)[C@H](C(C)C)NC(=O)[C@H](CC(C)C)NC(=O)[C@H](CC(N)=O)NC(=O)[C@H]2CCCN2C(=O)[C@H](CN)NC(=O)[C@H](C(C)C)NC(=O)[C@H](Cc2ccc(-c3ccccc3)cc2)NC1=O [Example 1405] ({CH2CO}-FYDWL[Bip]V[Dap][dP]NLVTCA-NH2; thioether N-14)
Result: 660 nM

Q: GET /values?readout=IC50&item= CC(C)C[C@@H]1NC(=O)[C@H](Cc2c[nH]c3ccccc23)NC(=O)[C@H](CC(=O)O)NC(=O)[C@H](Cc2ccc(O)cc2)NC(=O)[C@H](Cc2ccccc2)NC(=O)CSC[C@@H](C(=O)N[C@@H](C)C(N)=O)NC(=O)[C@H](CO)NC(=O)[C@H](C(C)C)NC(=O)[C@H](CC(C)C)NC(=O)[C@H](CC(N)=O)NC(=O)[C@H](Cc2ccccc2)N(C)C(=O)[C@H](C)N(C)C(=O)[C@H](C(C)C)NC(=O)[C@H](Cc2ccc(-c3ccccc3)cc2)NC1=O [Example 1060] ({CH2CO}-FYDWL[Bip]V[NMeA][NMeF]NLVSCA-NH2; thioether N-14)
Result: 140 nM

* * *

target: human PD-1 (Jurkat-PD-1 cells) / PE-labeled human PD-L1-Ig (Homo sapiens); construct: expressed in transfected cells; host or cells: Jurkat cell line over-expressing human PD-1; test: Jurkat-PD-1 Cell Binding High-Content Screening Assay (CBA); Jurkat hPD1-PDL1 assay; conditions: Jurkat cell line over-expressing human PD-1; PE-labeled PD-L1-Ig 20 nM final; compound incubated 2 hours at 37° C.; read-out: Jurkat HPD1-PDL1 IC50
Positions of bridges follow the written chain, without caps; N, C: chain ends. Non-standard residues stand in square brackets, D forms with d. Residues, ends and D or L forms follow the SMILES beside them. Ala(indol-4-yl) = N[C@@H](Cc1cccc2[nH]ccc12)C(=O)O; Bip = N[C@@H](Cc1ccc(-c2ccccc2)cc1)C(=O)O; Ala(cPent) = N[C@@H](CC1CCCC1)C(=O)O; NMeF = CN[C@@H](Cc1ccccc1)C(=O)O; NMeA = CN[C@@H](C)C(=O)O; Abu = CC[C@H](N)C(=O)O; Sar = CNCC(=O)O
Catalogue of pIC50 values
Interpret pIC50 as the negative base-10 log of the concentration measured in mol/L.

Check out these entries, answers already filled in.
Q: I'm curious: which pIC50 was measured for CC(C)C[C@@H]1NC(=O)[C@H](Cc2cccc3[nH]ccc23)NC(=O)[C@H](CC(=O)O)NC(=O)[C@H](Cc2ccc(O)cc2)NC(=O)[C@H](Cc2ccccc2)NC(=O)CSC[C@@H](C(=O)N[C@@H](C)C(N)=O)NC(=O)[C@H](CO)NC(=O)[C@H](C(C)C)NC(=O)[C@H](CC(C)C)NC(=O)[C@H](CC(N)=O)NC(=O)CN(C)C(=O)[C@H](C)N(C)C(=O)[C@H](C(C)C)NC(=O)[C@H](Cc2ccc(-c3ccccc3)cc2)NC1=O [Example 1124] ({CH2CO}-FYD[Ala(indol-4-yl)]L[Bip]V[NMeA][Sar]NLVSCA-NH2; thioether N-14) tested on human PD-1 (Jurkat-PD-1 cells) / PE-labeled human PD-L1-Ig (Homo sapiens)?
Result: 6.35

Q: I'm curious: which pIC50 was measured for CC(C)C[C@@H]1NC(=O)[C@H](Cc2c[nH]c3ccccc23)NC(=O)[C@H](CC(=O)O)NC(=O)[C@H](Cc2ccc(O)cc2)NC(=O)[C@H](Cc2ccccc2)NC(=O)CSC[C@@H](C(=O)N[C@@H](C)C(N)=O)NC(=O)[C@H](CO)NC(=O)[C@H](C(C)C)NC(=O)[C@H](CC(C)C)NC(=O)[C@H](CCCNC(=N)N)NC(=O)[C@H]2CCCN2C(=O)[C@H](C)N(C)C(=O)[C@H](CCCNC(=N)N)NC(=O)[C@H](Cc2ccc(-c3ccccc3)cc2)NC1=O [Example 1096] ({CH2CO}-FYDWL[Bip]R[NMeA][dP]RLVSCA-NH2; thioether N-14) tested on human PD-1 (Jurkat-PD-1 cells) / PE-labeled human PD-L1-Ig (Homo sapiens)?
Result: 6.55

Q: I'm curious: which pIC50 was measured for CC(C)C[C@@H]1NC(=O)[C@H](CC(N)=O)NC(=O)CN(C)C(=O)[C@H](C)N(C)C(=O)[C@H](C(C)C)NC(=O)[C@H](Cc2ccc(-c3ccccc3)cc2)NC(=O)[C@H](CC(C)C)NC(=O)[C@H](Cc2c[nH]c3ccccc23)NC(=O)[C@H](CC(=O)O)NC(=O)[C@H](Cc2ccc(O)cc2)NC(=O)[C@H](Cc2ccccc2)NC(=O)CSC[C@@H](C(=O)NCC(N)=O)NC(=O)[C@H](CO)NC(=O)[C@H](C)NC1=O [Example 1111] ({CH2CO}-FYDWL[Bip]V[NMeA][Sar]NLASCG-NH2; thioether N-14) tested on human PD-1 (Jurkat-PD-1 cells) / PE-labeled human PD-L1-Ig (Homo sapiens)?
Result: 6.46

Q: I'm curious: which pIC50 was measured for CC(C)C[C@@H]1NC(=O)[C@H](Cc2c[nH]c3ccccc23)NC(=O)[C@H](CC(=O)O)NC(=O)[C@H](Cc2ccc(O)cc2)NC(=O)[C@H](Cc2ccccc2)NC(=O)CSC[C@@H](C(=O)N[C@@H](C)C(N)=O)NC(=O)[C@H](CO)NC(=O)[C@H](C(C)C)NC(=O)[C@H](CC(C)C)NC(=O)[C@H](CCCCN)NC(=O)CN(C)C(=O)[C@H](C)N(C)C(=O)[C@H](C(C)C)NC(=O)[C@H](Cc2ccc(-c3ccccc3)cc2)NC1=O [Example 1099] ({CH2CO}-FYDWL[Bip]V[NMeA][Sar]KLVSCA-NH2; thioether N-14) tested on human PD-1 (Jurkat-PD-1 cells) / PE-labeled human PD-L1-Ig (Homo sapiens)?
Result: 6.51

Q: I'm curious: which pIC50 was measured for CC[C@@H]1NC(=O)[C@H](Cc2c[nH]c3ccccc23)NC(=O)[C@H](CC(=O)O)NC(=O)[C@H](Cc2ccc(O)cc2)NC(=O)[C@H](Cc2ccccc2)NC(=O)CSC[C@@H](C(=O)NCC(N)=O)NC(=O)[C@H](CO)NC(=O)[C@H](C(C)C)NC(=O)[C@H](CC(C)C)NC(=O)[C@H](CCCNC(=N)N)NC(=O)[C@H](Cc2ccccc2)N(C)C(=O)[C@H](C)N(C)C(=O)[C@H](CCCNC(=N)N)NC(=O)[C@H](Cc2ccc(-c3ccccc3)cc2)NC1=O [Example 1336] ({CH2CO}-FYDW[Abu][Bip]R[NMeA][NMeF]RLVSCG-NH2; thioether N-14) tested on human PD-1 (Jurkat-PD-1 cells) / PE-labeled human PD-L1-Ig (Homo sapiens)?
Result: 6.39

---
Q: I'm curious: which pIC50 was measured for CC(C)C[C@@H]1NC(=O)[C@H](Cc2c[nH]c3ccccc23)NC(=O)[C@H](CC(=O)O)NC(=O)[C@H](Cc2ccc(O)cc2)NC(=O)[C@H](Cc2ccccc2)NC(=O)CSC[C@@H](C(=O)N[C@@H](C)C(N)=O)NC(=O)[C@H](CO)NC(=O)[C@H](C(C)C)NC(=O)[C@H](CC2CCCC2)NC(=O)[C@H](CC(N)=O)NC(=O)CN(C)C(=O)[C@H](C)N(C)C(=O)[C@H](C(C)C)NC(=O)[C@H](Cc2ccc(-c3ccccc3)cc2)NC1=O [Example 1102] ({CH2CO}-FYDWL[Bip]V[NMeA][Sar]N[Ala(cPent)]VSCA-NH2; thioether N-14) tested on human PD-1 (Jurkat-PD-1 cells) / PE-labeled human PD-L1-Ig (Homo sapiens)?
Result: 6.51

Q: I'm curious: which pIC50 was measured for CC(C)C[C@@H]1NC(=O)[C@H](CCCNC(=N)N)NC(=O)[C@H](Cc2ccccc2)N(C)C(=O)[C@H](C)N(C)C(=O)[C@H](CCCNC(=N)N)NC(=O)[C@H](Cc2ccc(-c3ccccc3)cc2)NC(=O)[C@H](C(C)C)NC(=O)[C@H](Cc2c[nH]c3ccccc23)NC(=O)[C@H](CC(=O)O)NC(=O)[C@H](Cc2ccc(O)cc2)NC(=O)CNC(=O)CSC[C@@H](C(=O)NCC(N)=O)NC(=O)[C@H](CO)NC(=O)[C@H](C(C)C)NC1=O [Example 1258] ({CH2CO}-GYDWV[Bip]R[NMeA][NMeF]RLVSCG-NH2; thioether N-14) tested on human PD-1 (Jurkat-PD-1 cells) / PE-labeled human PD-L1-Ig (Homo sapiens)?
Result: 6.62

Q: I'm curious: which pIC50 was measured for CC(C)C[C@@H]1NC(=O)[C@H](Cc2c[nH]c3ccccc23)NC(=O)[C@H](CC(=O)O)NC(=O)[C@H](Cc2ccc(O)cc2)NC(=O)[C@H](Cc2ccccc2)NC(=O)CSC[C@@H](C(=O)N[C@@H](C)C(N)=O)NC(=O)[C@H](CO)NC(=O)[C@H](C(C)C)NC(=O)[C@H](CC(C)C)NC(=O)[C@H](CC(N)=O)NC(=O)[C@H]2CCCN2C(=O)[C@H]2CCCN2C(=O)[C@H](C(C)C)NC(=O)[C@H](Cc2ccc(-c3ccccc3)cc2)NC1=O [Example 1007] ({CH2CO}-FYDWL[Bip]V[dP][dP]NLVSCA-NH2; thioether N-14) tested on human PD-1 (Jurkat-PD-1 cells) / PE-labeled human PD-L1-Ig (Homo sapiens)?
Result: 6.82
